# TEST PROTOCOL: Cytotoxicity against human Huh7.5 cells
# Type: cell-based, Huh-7
Property: CC50; scope: individual compounds
PARAMETER: CC50

INSERT INTO results (given_smiles, value) VALUES
  ('O=CC1=CN2[C@@H]3[C@@H](CCC[C@H]3CN3CCCC[C@@H]32)C1', '> 100 µM'),
  ('O=C1CC[C@@H]2CCC[C@H]3CN4CCCC[C@H]4N1[C@H]23', '> 100 µM'),
  ('COC[C@@H]1CCCN2C[C@@H]3CCC[C@H]4CC(C=O)=CN([C@H]43)[C@@H]12', '> 100 µM'),
  ('C1C[C@H]2CCCN3[C@H]2[C@@H](C1)CN1CCCC[C@@H]13', '95.9 µM'),
  ('CCC[C@H](NC(=O)[C@@H]1[C@H]2CCC[C@H]2CN1C(=O)[C@@H](NC(=O)[C@@H](NC(=O)c1cnccn1)C1CCCCC1)C(C)(C)C)C(=O)C(=O)NC1CC1', '47.8 µM'),
  ('O=C1CC[C@@H]2CCC[C@H]3CN4CCC[C@H](C[C@H]5CCCN6C[C@@H]7CCC[C@H]8CCC(=O)N([C@H]87)[C@H]56)[C@H]4N1[C@H]23', '> 100 µM');

====

Property: selectivity ratio; scope: individual molecules
# TEST PROTOCOL: Therapeutic index, ratio of CC50 for human Huh7.5 cells to EC50 for chimeric HCV FL-J6/JFH/JC1 infected in human Huh7.5 cells
# Type: cell-based, Huh-7
# ASSAY SETUP: read-out: Ratio CC50/EC50
PARAMETER: selectivity ratio

INSERT INTO assay_data (given_smiles, parameter, value) VALUES
  ('CCC[C@H](NC(=O)[C@@H]1[C@H]2CCC[C@H]2CN1C(=O)[C@@H](NC(=O)[C@@H](NC(=O)c1cnccn1)C1CCCCC1)C(C)(C)C)C(=O)C(=O)NC1CC1', 'selectivity ratio', 371),
  ('C1C[C@H]2CCCN3[C@H]2[C@@H](C1)CN1CCCC[C@@H]13', 'selectivity ratio', 13),
  ('O=C1CC[C@@H]2CCC[C@H]3CN4CCC[C@H](C[C@H]5CCCN6C[C@@H]7CCC[C@H]8CCC(=O)N([C@H]87)[C@H]56)[C@H]4N1[C@H]23', 'selectivity ratio', '> 9.5'),
  ('O=CC1=CN2[C@@H]3[C@@H](CCC[C@H]3CN3CCCC[C@@H]32)C1', 'selectivity ratio', '> 30.6'),
  ('COC[C@@H]1CCCN2C[C@@H]3CCC[C@H]4CC(C=O)=CN([C@H]43)[C@@H]12', 'selectivity ratio', '> 109'),
  ('O=C1CC[C@@H]2CCC[C@H]3CN4CCCC[C@H]4N1[C@H]23', 'selectivity ratio', '> 3.3');

====

# Test system: Hepatitis C virus
# TEST PROTOCOL: Antiviral activity against chimeric HCV FL-J6/JFH/JC1 infected in human Huh7.5 cells assessed as reduction of intracellular viral RNA level after 72 hrs by RT-PCR assay
# Assay type: functional, organism-based, Hepacivirus hominis
# ASSAY SETUP: FL-J6/JFH/JC1, Huh-7, 72 h
pEC50: −log10 of the molar value.
Classification field: y = pEC50 at or over 5; n = pEC50 under 5.

INSERT INTO results (given_smiles, assigned_class) VALUES
  ('CCC[C@H](NC(=O)[C@@H]1[C@H]2CCC[C@H]2CN1C(=O)[C@@H](NC(=O)[C@@H](NC(=O)c1cnccn1)C1CCCCC1)C(C)(C)C)C(=O)C(=O)NC1CC1', 'y'),
  ('O=CC1=CN2[C@@H]3[C@@H](CCC[C@H]3CN3CCCC[C@@H]32)C1', 'y'),
  ('COC[C@@H]1CCCN2C[C@@H]3CCC[C@H]4CC(C=O)=CN([C@H]43)[C@@H]12', 'y'),
  ('O=C1CC[C@@H]2CCC[C@H]3CN4CCCC[C@H]4N1[C@H]23', 'n');
